# Tested on: P. falciparum 3D7 growth, pLDH absorbance
# assayMethodText: blood-stage malaria parasite growth potency – strain 3D7, dose response (AID 2305)
Threshold-based label: IC50 under 700 nM gives 1.0, IC50 not under 700 nM gives 0.0.

Solved entries:
>>> cat("N=C(N)CCN(Cc1ccccc1)c1ccc(Cl)cc1")
1.0
>>> cat("CC(C)(C)c1ccc(OCC(=O)NC2CCN(c3ccnc4cc(Cl)ccc34)C2)cc1 (stereo not given)")
1.0
>>> cat("COc1ccc(-n2ccnc2SCC(=O)Nc2cc(C)ccc2C)c(OC)c1")
1.0
>>> cat("O=C(Nc1ccc(C(=O)OCC2CCCCC2)cc1)N[C@@H](Cc1ccc(O)cc1)C(=O)NC1CCN(Cc2ccc(O)cc2)C1 (stereo not given in full)")
0.0
>>> cat("Cc1sc2ncnc(Sc3nc4ccccc4[nH]3)c2c1C")
1.0

Q: Regarding `Cc1cccc2[nH]c(-c3ccc(-c4ccc(NC(=O)NCc5cccc(F)c5)cc4)cc3)nc12` , kindly confirm whether its IC50 is beneath 700 nM.
Result: 0.0

Q: Regarding `CCCCCN=C(N)c1ccc(OCCCCCOc2ccc(C(N)=NCCCCC)cc2)cc1` , kindly confirm whether its IC50 is beneath 700 nM.
Result: 1.0

Q: Regarding `CC(C)N1CCC(NC(=O)N2CCCN(c3ncnc4cc(-c5ccccc5)sc34)CC2)CC1` , kindly confirm whether its IC50 is beneath 700 nM.
Result: 0.0

Q: Regarding OC1CCCN(Cc2ccc(-c3cccc(-c4nc5ccccc5[nH]4)c3)cc2)C1 (stereo not given) , kindly confirm whether its IC50 is beneath 700 nM.
Result: 0.0

Q: Regarding CCC(C)OC(=O)C1=C(C)NC2=C(C(=O)CC(c3ccc(OC)c(OC)c3)C2)C1c1ccc(C)o1 (stereo not given) , kindly confirm whether its IC50 is beneath 700 nM.
Result: 0.0

---

# System: P. falciparum 3D7 growth, pLDH absorbance
# assayMethodText: blood-stage malaria parasite growth potency – strain 3D7, dose response (AID 2305)
measurementLabel: IC50 (nM)
The figure you give is taken to be in nM; do not add the unit.

Here are 4 compounds together with their reported answers.
>>> experimentalresult("CC[C@H]1CN2CC[C@@H]1C[C@H]2[C@H](O)c1cc(N2CCCC(C)(C)C2)nc2ccc(OC)cc12")
340
>>> experimentalresult("CC(=O)Nc1ncc(C(=O)Nc2ccc(-c3cccc(-c4nc5ccc(F)cc5[nH]4)c3)cc2)s1")
350
>>> experimentalresult("COCCNCc1ccc(-c2ccc(CNc3ccc4ncccc4c3)cc2)cc1")
1040
>>> experimentalresult("COc1cccc(OC)c1CN1CCC(N(C)CCCCCCCCCN2CCC(OC(=O)Nc3ccccc3-c3ccccc3)CC2)CC1")
320

So, `CS(=O)(=O)CCNCc1ccc(-c2ccc3c(Nc4ccc(F)cc4Cl)ccnc3c2)o1` ? Its IC50 was 740

---

# Tested on: P. falciparum 3D7 growth, pLDH absorbance
# assayMethodText: blood-stage malaria parasite growth potency – strain 3D7, dose response (AID 2305)
measurementLabel: IC50 (µM)
The figure you give is taken to be in µM; do not add the unit.

>>> experimentalresult("COc1ccc(-c2cc(C(F)(F)F)n3ncc(C(=O)Nc4cc(C)ccc4O)c3n2)cc1OC")
0.13
>>> experimentalresult("c1ccc(-c2ccc(CNCCCNc3nc4ccccc4[nH]3)cc2)cc1")
0.78

So, O=C(NC1CCN(c2ccnc3ccccc23)C1)c1cccc(C(F)(F)F)c1 (centres undefined) ? Its IC50 was 0.9

So, `Cc1cccc2[nH]c(-c3ccc(-c4ccc(CNC(C)C)cc4)cc3)nc12` ? Its IC50 was 0.68

So, CC(C)(C)c1ccc(CN2CCCCC(NC(=O)c3cc(-c4cccc(F)c4)cs3)C2)cc1 (centres undefined) ? Its IC50 was 0.78

So, `CC(C)=CCc1c(-c2ccc(O)cc2O)oc2c3c(cc(O)c2c1=O)OC(C)(C)C=C3` ? Its IC50 was 0.98

So, `Cc1c(Cn2ncc(N3C[C@@H](C)N[C@@H](C)C3)c(Cl)c2=O)cccc1NC(=O)Nc1ccc(-c2ccccc2)cc1` ? Its IC50 was 0.6

So, `CCNC(=NCc1ccccc1)NCCCCCCNC(=NCc1ccccc1)NCC` ? Its IC50 was 0.7

So, `COc1ccc(Nc2ncc3c(-c4cccc(NC(=O)Cc5cccnc5)c4)c[nH]c3n2)cc1OC` ? Its IC50 was 0.72

So, `CC(C)(CNCc1cc(Cl)cc(Cl)c1)c1nc(-c2ccc(Cl)c(O)c2)c(-c2ccnc(N)n2)[nH]1` ? Its IC50 was 1.01

So, `O=C(/C=C/c1ccc(I)cc1)NCCCCCN1CCC(c2c[nH]c3ccc(O)cc23)CC1` ? Its IC50 was 0.77

Values were extracted from PubChem BioAssay AID2305.
